- test.system: T1, Recombinant Human DLL4 (R&D Systems Cat#1506-D4/CF) (human, UniProt Q9NR61 27-524)
- T1 construct: Bought recombinant protein; also called delta-like protein 4; rHuman DLL4
- assay.info: ECL multispot (MSD) binding assay, antigen spotted on plate;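 also: purified Fab incubated 1 h at 20 °C on antigen spots, detected with TAG-labelled antibody, electrochemiluminescence compared with each well's blank, signal-to-blank ratio ≥4 counted as hit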
readout: ECL signal
Lab note: jot the number down without any unit.

binder	ECL signal
Fab VH1-46_IGHD6-6*01_IGHJ1*01 S102A/S103P/S104F/H111F (APFF) & L6_IGKJ1*01 S31F (Fab, V domains shown, Tested as Fab (CH1 with His6/Flag tags, kappa CL) made in E. coli; also called APFF / S31F) VH: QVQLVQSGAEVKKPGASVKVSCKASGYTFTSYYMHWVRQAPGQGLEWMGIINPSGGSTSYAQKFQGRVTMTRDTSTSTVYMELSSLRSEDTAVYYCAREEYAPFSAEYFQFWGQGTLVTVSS VL: EIVLTQSPATLSLSPGERATLSCRASQSVSFYLAWYQQKPGQAPRLLIYDASNRATGIPARFSGSGSGTDFTLTISSLEPEDFAVYYCQQRSNWPPWTFGQGTKVEIKR	189000

Request the reported ECL signal associated with Fab VH1-46_IGHD6-6*01_IGHJ1*01 S102A/S103P/S104F/H111F (APFF) & L6_IGKJ1*01 S31L (Fab, V domains shown, Tested as Fab (CH1 with His6/Flag tags, kappa CL) made in E. coli; also called APFF / S31L) VH: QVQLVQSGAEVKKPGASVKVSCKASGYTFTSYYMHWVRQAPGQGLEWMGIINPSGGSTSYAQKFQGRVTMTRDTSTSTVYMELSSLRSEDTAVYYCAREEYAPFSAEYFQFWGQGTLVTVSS VL: EIVLTQSPATLSLSPGERATLSCRASQSVSLYLAWYQQKPGQAPRLLIYDASNRATGIPARFSGSGSGTDFTLTISSLEPEDFAVYYCQQRSNWPPWTFGQGTKVEIKR
155000

// ECL signal lookup, key: Fab VH1-46_IGHD6-6*01_IGHJ1*01 S102A/S103P/S104F/H111F (APFF) & L6_IGKJ1*01 S31A (Fab, V domains shown, Tested as Fab (CH1 with His6/Flag tags, kappa CL) made in E. coli; also called APFF / S31A) VH: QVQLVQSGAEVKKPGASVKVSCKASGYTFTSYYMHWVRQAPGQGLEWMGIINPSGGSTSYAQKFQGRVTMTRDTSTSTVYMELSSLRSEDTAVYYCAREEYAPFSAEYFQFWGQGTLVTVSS VL: EIVLTQSPATLSLSPGERATLSCRASQSVSAYLAWYQQKPGQAPRLLIYDASNRATGIPARFSGSGSGTDFTLTISSLEPEDFAVYYCQQRSNWPPWTFGQGTKVEIKR
192000

Look up ECL signal: Fab VH1-46_IGHD6-6*01_IGHJ1*01 S102A/S103P/S104F/H111F (APFF) & L6_IGKJ1*01 S31M (Fab, V domains shown, Tested as Fab (CH1 with His6/Flag tags, kappa CL) made in E. coli; also called APFF / S31M) VH: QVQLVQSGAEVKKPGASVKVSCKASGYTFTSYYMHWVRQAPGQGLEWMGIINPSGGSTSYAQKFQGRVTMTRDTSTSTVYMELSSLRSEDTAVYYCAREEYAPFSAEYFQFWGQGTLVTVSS VL: EIVLTQSPATLSLSPGERATLSCRASQSVSMYLAWYQQKPGQAPRLLIYDASNRATGIPARFSGSGSGTDFTLTISSLEPEDFAVYYCQQRSNWPPWTFGQGTKVEIKR
167000

Please give the measured ECL signal for this binder: Fab VH1-46_IGHD6-6*01_IGHJ1*01 S102A/S103P/S104F/H111F (APFF) & L6_IGKJ1*01 S31I (Fab, V domains shown, Tested as Fab (CH1 with His6/Flag tags, kappa CL) made in E. coli; also called APFF / S31I) VH: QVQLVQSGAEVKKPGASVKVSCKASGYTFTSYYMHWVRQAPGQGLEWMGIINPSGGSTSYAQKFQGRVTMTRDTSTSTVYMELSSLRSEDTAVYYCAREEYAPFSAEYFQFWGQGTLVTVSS VL: EIVLTQSPATLSLSPGERATLSCRASQSVSIYLAWYQQKPGQAPRLLIYDASNRATGIPARFSGSGSGTDFTLTISSLEPEDFAVYYCQQRSNWPPWTFGQGTKVEIKR
174000

What does the data say about its ECL signal? Entry: Fab VH1-46_IGHD6-6*01_IGHJ1*01 S102A/S103P/S104F/H111F (APFF) & L6_IGKJ1*01 S31D (Fab, V domains shown, Tested as Fab (CH1 with His6/Flag tags, kappa CL) made in E. coli; also called APFF / S31D) VH: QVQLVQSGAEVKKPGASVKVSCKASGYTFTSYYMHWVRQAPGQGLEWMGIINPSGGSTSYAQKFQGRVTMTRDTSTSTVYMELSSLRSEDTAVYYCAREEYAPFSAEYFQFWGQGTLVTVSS VL: EIVLTQSPATLSLSPGERATLSCRASQSVSDYLAWYQQKPGQAPRLLIYDASNRATGIPARFSGSGSGTDFTLTISSLEPEDFAVYYCQQRSNWPPWTFGQGTKVEIKR
154000

Value lookup for ECL signal; key = Fab VH1-46_IGHD6-6*01_IGHJ1*01 S102A/S103P/S104F/H111F (APFF) & L6_IGKJ1*01 S31H (Fab, V domains shown, Tested as Fab (CH1 with His6/Flag tags, kappa CL) made in E. coli; also called APFF / S31H) VH: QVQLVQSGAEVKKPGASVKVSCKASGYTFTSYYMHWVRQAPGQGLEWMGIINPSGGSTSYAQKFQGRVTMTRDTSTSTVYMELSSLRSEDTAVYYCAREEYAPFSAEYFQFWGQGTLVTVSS VL: EIVLTQSPATLSLSPGERATLSCRASQSVSHYLAWYQQKPGQAPRLLIYDASNRATGIPARFSGSGSGTDFTLTISSLEPEDFAVYYCQQRSNWPPWTFGQGTKVEIKR
221000
